Test: chemical genetic growth profiling, strain panel (AID 1159580);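 further: tested at 20 µM; growth read once vehicle control cultures reached saturation at 30 °C; 1 = growth at the plate median or of vehicle wells; lower values mean less growth of the strain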
Settings: S. cerevisiae deletion strains, growth OD, locus YDR069C, strain doa4, active compounds read low
Out of some 5,500 compounds screened, about 2,000 (36%) were called active. Inconclusive results (about 18%) are left out. The list shows a part of the results.
reported endpoint: normalized growth
Answer with a bare number; do not write a unit.

Any idea what normalized growth was measured for C=C1C2=CC(=O)O[C@@H](c3ccoc3)[C@]2(C)CCC1[C@@]1(C)C=CC(=O)C(C)(C)[C@@H]1CC(=O)OC (stereo partly specified) ? 0.991

Any idea what normalized growth was measured for Cc1ncc([N+](=O)[O-])n1CC(C)O (stereo unspecified) ? 0.966

Any idea what normalized growth was measured for `Nc1cc(-c2ccncc2)c[nH]c1=O` ? 0.885

Any idea what normalized growth was measured for `Nc1ccncc1` ? 1

Any idea what normalized growth was measured for C[C@@H]1CC2C3CCC4=CC(=O)C=C[C@]4(C)[C@@]3(F)[C@@H](O)C[C@]2(C)[C@H]1C(=O)CO (stereo partly specified) ? 0.999

Any idea what normalized growth was measured for C=C1C2CCC3(C)C(c4ccoc4)OC(=O)CC13OC1CC(OC(C)=O)C(C)(C)C(CC(=O)OC)C12C (stereo unspecified) ? 1.01

Any idea what normalized growth was measured for `O=c1cc(-c2ccc(O)cc2)oc2cc(O)ccc12` ? 0.949

Any idea what normalized growth was measured for `O=c1cc(-c2ccccc2)oc2c(O)c(O)ccc12` ? 0.936

Any idea what normalized growth was measured for `CN(C)N=Nc1nc[nH]c1C(N)=O` ? 0.976

Any idea what normalized growth was measured for `O=c1cc(-c2ccccc2)oc2cc(O)c(O)cc12` ? 0.819

Any idea what normalized growth was measured for C=C1C2CC[C@@]3(C)[C@H](c4ccoc4)OC(=O)C[C@]13O[C@H]1CC(O)C(C)(C)C(CC(=O)OC)[C@@]21C (stereo partly specified) ? 0.957
